test.description: in vitro
measurement.setup: human, hela cells, % viability
Exercise: for every item that follows, state its recorded viability at 28.5 h, 10 µM.

Q. For the compound CN1C2CCC1CC(OC(=O)CCN1CCCC1)C2 (centres unmarked) , what viability at 28.5 h, 10 µM is on record?
A. 95.3%

Q. Recorded viability at 28.5 h, 10 µM for COc1ccc(C(=O)CCN(C)CC(=O)O)cc1 , please?
A. 89.7%

Q. Please give the measured viability at 28.5 h, 10 µM for this compound: CC(C)(C)OC(=O)NC1CCc2ccccc2N(Cc2ccccc2)C1=O (centres unmarked)
A. 97.1%

Q. Report viability at 28.5 h, 10 µM for Cc1ncc(CN(CCN(C)C)Cc2cccs2)n1C please.
A. 93.4%

Q. What value of viability at 28.5 h, 10 µM has been recorded for this entry: Cc1nc2c(OCC3CCCCC3)cccn2c1N(C)CC1CC1
A. 97.2%

Q. State the recorded viability at 28.5 h, 10 µM for this entry: Cc1cccc(NC(=O)CN2C(=O)S/C(=C\c3cc(C)n(-c4cc(C)ccn4)c3C)C2=O)c1
A. 93.4%

Q. Can you look up the measured viability at 28.5 h, 10 µM of COCCNc1cc(-c2ccncc2)ncn1 for me?
A. 87.6%

Q. viability at 28.5 h, 10 µM for O=C(CCS(=O)(=O)Cc1ccccc1)Nc1cc(C(F)(F)F)ccc1Cl ?
A. 108%

Q. Item O=c1c2ccccc2n2c(=O)[nH]nc2n1-c1ccccc1 has what recorded viability at 28.5 h, 10 µM?
A. 104%

Q. So what's the measured viability at 28.5 h, 10 µM for this one? COc1ccc(NC(=O)c2ccc(-c3nnn[nH]3)cc2)cc1Cl
A. 114%

Q. May I ask what viability at 28.5 h, 10 µM has been recorded for Cn1ccnc1SCC(=O)Nc1ccc(I)cc1 ?
A. 85.3%

Q. Query: viability at 28.5 h, 10 µM; subject: CN1CCN(C(=O)Nc2cccc(-c3nc(-c4ccc(C#N)cc4)cnc3N)c2)CC1
A. 91.7%

Q. Look at this compound and give its reported viability at 28.5 h, 10 µM. CC(C)(CN)CN(Cc1ccccc1C(F)(F)F)C(=O)NCc1ccc(F)cc1 [CBK002471C]
A. 87.8%

Q. What viability at 28.5 h, 10 µM value was documented for this compound, c1cncc(CCNc2nccnc2-c2cccnc2)c1 ?
A. 93%

Q. Any idea what its viability at 28.5 h, 10 µM is? The compound is CCOC(=O)N(C)c1c(CC)nc2c(OCC(=O)C(C)(C)C)cccn12
A. 94.2%

Q. I would be grateful if you could share the reported viability at 28.5 h, 10 µM for COCC(C)NCc1cc(-c2ccc(Cl)cc2)c[nH]c1=O (centres unmarked) .
A. 79%

Q. Give its viability at 28.5 h, 10 µM value. Item: Cc1nc2n(n1)C1=CC(C)(C)CC(=O)C1=NN2
A. 89.2%

Q. Look at this compound and give its reported viability at 28.5 h, 10 µM. CCc1nc(CN2CCN(c3ccc4nc(C)nn4n3)CC2)cs1
A. 89.1%

Q. Which viability at 28.5 h, 10 µM is reported for this compound? Fc1cccc(-c2nc3c(s2)CN(C2CCOCC2)CC3)c1
A. 87%

Q. May I ask what viability at 28.5 h, 10 µM has been recorded for CC(C)N(CCOc1nccnc1-c1ccsc1)C(C)C ?
A. 111%

Q. Param item = CCCCNc1ncncc1-c1ccc(Br)cc1 [CBK005014C] ; retrieve measured viability at 28.5 h, 10 µM.
A. 88.6%

Q. Report viability at 28.5 h, 10 µM for CCOc1cc(NC2CCN(C(=O)Cc3ccncc3)CC2)ncn1 please.
A. 101%

Q. Need viability at 28.5 h, 10 µM of CN1CCCN(c2nccnc2-c2cccc(O)c2)CC1 , thanks.
A. 112%

Q. Quick one: viability at 28.5 h, 10 µM of Cc1[nH]c(=O)c(S(=O)(=O)c2ccccc2)c(C)c1Cl ?
A. 83.1%

Q. Form field: reported viability at 28.5 h, 10 µM of CC(C)CNc1ncc(-c2ccc(N3CCOCC3)cc2)n2ccnc12
A. 101%

Q. Can you look up the measured viability at 28.5 h, 10 µM of COc1ccc(/C=C/C(=O)c2ccc(OC)cc2OC)c(OC)c1 for me?
A. 87.3%

Q. Give the measured viability at 28.5 h, 10 µM of CC1CCc2c(C(=O)N3CC(C)OC(C)C3)csc2C1 (centres unmarked) .
A. 106%

Q. Consider the compound Cc1oc2c(c1C(=O)NCCSc1nncn1C)C(=O)CCC2 and give its measured viability at 28.5 h, 10 µM.
A. 92.5%

Q. Look up viability at 28.5 h, 10 µM: O/N=C1\CC(c2ccccc2)Oc2ccc(Cl)cc21 (centres unmarked)
A. 91.1%

Q. Recorded viability at 28.5 h, 10 µM for Cc1csc(Sc2nc3ccccc3nc2N2CCCC2)n1 , please?
A. 99.2%

Q. viability at 28.5 h, 10 µM lookup needed for CCOC(=O)C1CCCN(C(=O)Cn2ccc3sccc3c2=O)C1 (centres unmarked) , thanks.
A. 100%

Q. Need viability at 28.5 h, 10 µM, item N#CCCCN1CCC(Oc2nccnc2OCc2ccc(Br)cc2F)CC1
A. 94.7%

Q. Name the recorded viability at 28.5 h, 10 µM for N#Cc1ccc(CSc2ncccc2C(=O)O)cc1 .
A. 85.9%

Q. Quick one: viability at 28.5 h, 10 µM for Cc1ccc(Nc2cc(-c3cccnc3)ncn2)cc1NS(C)(=O)=O ?
A. 91.2%

Q. Field request: viability at 28.5 h, 10 µM | item: COc1cc(-c2cncc(NCC(C)(C)CO)n2)cc(OC)c1OC
A. 105%

Q. Would you mind telling me what viability at 28.5 h, 10 µM value was observed for FC(F)(F)C1CN(C2CCCCC2)C(=S)S1 (centres unmarked) ?
A. 84.2%

Q. What value of viability at 28.5 h, 10 µM has been recorded for this entry: Fc1cccc(N2CCN(Cc3ccccc3)CC2)n1
A. 102%

Q. Dear colleague, I am looking for the recorded viability at 28.5 h, 10 µM of the following compound: O=c1nc(NS(=O)(=O)c2ccccc2Br)c(F)c[nH]1
A. 76.6%

Q. Value lookup for viability at 28.5 h, 10 µM; key = CC(=O)Nc1ccc(C(=O)CSc2nc(-c3ccccc3)c(-c3ccccc3)o2)cc1
A. 87.6%

Q. Could you share which viability at 28.5 h, 10 µM value was measured for Brc1cccc(OCc2cccs2)c1 ?
A. 99%

Q. What does the data say about its viability at 28.5 h, 10 µM? Entry: O=C(NNC(=S)NCC1CCCO1)c1cccnc1 (centres unmarked)
A. 97.5%

Entry source: paper PMC12040169
